testTarget: HDAC6 enzyme (Homo sapiens, UniProt Q9UBN7)
Construct: transducing full length HDAC1 and HDAC6 genes into Sf-9 insect cells; GST; purchased SignalChem; host or cells: Sf-9 insect cells
Sequence (Q9UBN7 whole entry): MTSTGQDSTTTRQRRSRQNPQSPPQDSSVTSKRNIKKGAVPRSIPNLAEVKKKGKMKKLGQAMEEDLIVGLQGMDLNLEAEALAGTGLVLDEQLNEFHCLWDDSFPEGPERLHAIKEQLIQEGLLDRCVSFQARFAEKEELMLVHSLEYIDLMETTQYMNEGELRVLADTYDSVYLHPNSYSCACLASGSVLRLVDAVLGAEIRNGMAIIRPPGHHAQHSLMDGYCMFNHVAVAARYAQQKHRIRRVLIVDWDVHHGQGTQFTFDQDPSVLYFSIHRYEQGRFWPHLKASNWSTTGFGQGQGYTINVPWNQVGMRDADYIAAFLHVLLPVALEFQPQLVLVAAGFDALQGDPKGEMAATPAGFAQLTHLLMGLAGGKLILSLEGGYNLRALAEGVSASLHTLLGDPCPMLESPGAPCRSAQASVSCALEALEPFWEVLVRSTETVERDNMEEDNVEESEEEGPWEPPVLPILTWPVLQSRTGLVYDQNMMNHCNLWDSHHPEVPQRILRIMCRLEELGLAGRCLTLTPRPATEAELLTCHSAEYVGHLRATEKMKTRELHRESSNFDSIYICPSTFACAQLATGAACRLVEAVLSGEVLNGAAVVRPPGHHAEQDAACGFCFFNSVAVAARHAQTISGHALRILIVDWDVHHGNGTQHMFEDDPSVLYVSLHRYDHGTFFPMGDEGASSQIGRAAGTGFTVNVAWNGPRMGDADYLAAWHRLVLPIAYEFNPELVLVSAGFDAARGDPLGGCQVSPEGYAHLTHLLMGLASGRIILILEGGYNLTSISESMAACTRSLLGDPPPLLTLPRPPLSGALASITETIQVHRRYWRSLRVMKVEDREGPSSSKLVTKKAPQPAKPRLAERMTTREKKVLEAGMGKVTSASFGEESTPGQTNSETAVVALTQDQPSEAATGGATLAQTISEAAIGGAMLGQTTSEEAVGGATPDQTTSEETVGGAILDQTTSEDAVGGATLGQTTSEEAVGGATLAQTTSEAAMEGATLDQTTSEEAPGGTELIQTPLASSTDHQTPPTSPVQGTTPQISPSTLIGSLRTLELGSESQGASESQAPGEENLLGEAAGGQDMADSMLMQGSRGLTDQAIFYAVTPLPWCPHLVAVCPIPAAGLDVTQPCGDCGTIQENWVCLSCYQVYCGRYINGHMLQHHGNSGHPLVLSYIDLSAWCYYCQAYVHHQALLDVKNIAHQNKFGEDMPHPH
measurementNotes: HDAC1/6 Enzyme Inhibitory Assay (HDAC-Glo I/II Assay kit), HDAC6
Type: biochemical
conditionDescription: 1 μM test compound; wells without enzyme = 100% inhibition; read-out: HDAC6 inhibitory rate (%) (1 μM)

# compound, inhibition at 1 µM, %
measured = [
    ("O=C(N[C@@H]1CCCC[C@H]1N1Cc2ccc(-c3noc(C(F)(F)F)n3)cc2C1=O)N1C2CCCC1COC2", 101),
    ("CC(=O)N1C[C@@H](N2Cc3ccc(-c4noc(C(F)(F)F)n4)cc3C2=O)[C@H](c2ccccc2)C1 (relative stereo)", 99),
    ("CC1(C(=O)N[C@@H]2CCCC[C@H]2N2Cc3ccc(-c4noc(C(F)(F)F)n4)cc3C2=O)CNC1", 100),
    ("O=C1c2cc(-c3noc(C(F)(F)F)n3)ccc2CN1[C@@H]1CCCC[C@H]1NC(=O)C1(O)CCC1", 100),
    ("O=C(N[C@H]1COCC[C@@H]1N1Cc2ccc(-c3noc(C(F)(F)F)n3)cc2C1=O)[C@@H]1CC1(F)F", 84),
    ("O=C1C[C@](Cc2ccccc2)(N2Cc3ccc(-c4noc(C(F)(F)F)n4)cc3C2=O)CN1", 99),
    ("CC1(C)C(C(=O)N[C@@H]2CCCC[C@H]2N2Cc3ccc(-c4noc(C(F)(F)F)n4)cc3C2=O)C1(C)C", 100),
]

---

testTarget: HDAC1 enzyme (Homo sapiens, UniProt Q13547)
Construct: transducing full length HDAC1 and HDAC6 genes into Sf-9 insect cells; GST; purchased SignalChem; host or cells: Sf-9 insect cells
Sequence (Q13547 whole entry): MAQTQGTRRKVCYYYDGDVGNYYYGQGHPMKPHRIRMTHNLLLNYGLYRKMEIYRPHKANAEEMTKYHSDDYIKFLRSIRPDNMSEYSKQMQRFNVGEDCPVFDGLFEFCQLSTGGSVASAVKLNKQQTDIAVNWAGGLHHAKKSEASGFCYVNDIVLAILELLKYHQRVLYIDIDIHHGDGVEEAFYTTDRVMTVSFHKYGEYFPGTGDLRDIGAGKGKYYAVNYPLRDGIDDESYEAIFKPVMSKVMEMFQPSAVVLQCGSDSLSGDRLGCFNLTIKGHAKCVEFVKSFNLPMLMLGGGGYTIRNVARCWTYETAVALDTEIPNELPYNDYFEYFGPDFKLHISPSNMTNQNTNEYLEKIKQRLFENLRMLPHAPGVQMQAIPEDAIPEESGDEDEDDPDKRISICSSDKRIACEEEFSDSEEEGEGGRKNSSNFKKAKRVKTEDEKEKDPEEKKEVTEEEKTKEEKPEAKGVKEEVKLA
measurementNotes: HDAC1/6 Enzyme Inhibitory Assay (HDAC-Glo I/II Assay kit), HDAC1
Type: biochemical
conditionDescription: 1 μM test compound; wells without enzyme = 100% inhibition; read-out: HDAC1 inhibitory rate (%) (1 μM)
# binning rule on inhibition at 1 µM: low = under 5%, medium = from 5% up to 10%, high = 10% and over

# compound, labelClass
records = [
    ("CC1(C(=O)N[C@H]2CCC[C@@H]2N2Cc3ccc(-c4noc(C(F)(F)F)n4)cc3C2=O)COC1", "high"),
    ("O=C(N[C@@H]1CCCC[C@H]1N1Cc2ccc(-c3noc(C(F)(F)F)n3)cc2C1=O)C1CC(F)(F)C1", "high"),
    ("COC1CN(C(=O)N[C@@H]2CCCC[C@H]2N2Cc3ccc(-c4noc(C(F)(F)F)n4)cc3C2=O)C1", "low"),
    ("O=C(N[C@@H]1CCCC[C@H]1N1Cc2ccc(-c3noc(C(F)(F)F)n3)cc2C1=O)[C@H]1CCCO1", "medium"),
    ("O=C1CCC2(CCC(N3Cc4ccc(-c5noc(C(F)(F)F)n5)cc4C3=O)CC2)N1 (stereo not drawn)", "medium"),
    ("O=C(N[C@@H]1CCCC[C@H]1N1Cc2ccc(-c3noc(C(F)(F)F)n3)cc2C1=O)N1CC2CC(C1)O2", "low"),
    ("O=C(NC1COC1)N[C@@H]1CCCC[C@H]1N1Cc2ccc(-c3noc(C(F)(F)F)n3)cc2C1=O", "medium"),
    ("O=C(N[C@@H]1CCCC[C@H]1N1Cc2ccc(-c3noc(C(F)(F)F)n3)cc2C1=O)C1CC1(F)F (stereo partly drawn)", "medium"),
    ("O=C(NC1CC1)N[C@@H]1CCCC[C@H]1N1Cc2ccc(-c3noc(C(F)(F)F)n3)cc2C1=O", "high"),
    ("CC1(C(=O)N[C@@H]2CCC(F)(F)C[C@H]2N2Cc3ccc(-c4noc(C(F)(F)F)n4)cc3C2=O)COC1", "low"),
    ("CN(C(=O)N[C@@H]1CCCC[C@H]1N1Cc2ccc(-c3noc(C(F)(F)F)n3)cc2C1=O)C1CC1", "high"),
    ("O=C(Cn1c(=O)oc2ccccc21)N1CCC(N2Cc3ccc(-c4noc(C(F)(F)F)n4)cc3C2=O)CC1", "medium"),
    ("C[C@H](c1ccccc1)N1CC[C@@H]2CC[C@@H](N3Cc4ccc(-c5noc(C(F)(F)F)n5)cc4C3=O)[C@@H]21", "high"),
]

---

testTarget: HDAC9 enzyme (Homo sapiens, UniProt Q9UKV0)
Construct: transducing full length HDAC9 gene into Sf-9 insect cells; made in house; host or cells: Sf-9 insect cells
Sequence (Q9UKV0 whole entry, species assumed): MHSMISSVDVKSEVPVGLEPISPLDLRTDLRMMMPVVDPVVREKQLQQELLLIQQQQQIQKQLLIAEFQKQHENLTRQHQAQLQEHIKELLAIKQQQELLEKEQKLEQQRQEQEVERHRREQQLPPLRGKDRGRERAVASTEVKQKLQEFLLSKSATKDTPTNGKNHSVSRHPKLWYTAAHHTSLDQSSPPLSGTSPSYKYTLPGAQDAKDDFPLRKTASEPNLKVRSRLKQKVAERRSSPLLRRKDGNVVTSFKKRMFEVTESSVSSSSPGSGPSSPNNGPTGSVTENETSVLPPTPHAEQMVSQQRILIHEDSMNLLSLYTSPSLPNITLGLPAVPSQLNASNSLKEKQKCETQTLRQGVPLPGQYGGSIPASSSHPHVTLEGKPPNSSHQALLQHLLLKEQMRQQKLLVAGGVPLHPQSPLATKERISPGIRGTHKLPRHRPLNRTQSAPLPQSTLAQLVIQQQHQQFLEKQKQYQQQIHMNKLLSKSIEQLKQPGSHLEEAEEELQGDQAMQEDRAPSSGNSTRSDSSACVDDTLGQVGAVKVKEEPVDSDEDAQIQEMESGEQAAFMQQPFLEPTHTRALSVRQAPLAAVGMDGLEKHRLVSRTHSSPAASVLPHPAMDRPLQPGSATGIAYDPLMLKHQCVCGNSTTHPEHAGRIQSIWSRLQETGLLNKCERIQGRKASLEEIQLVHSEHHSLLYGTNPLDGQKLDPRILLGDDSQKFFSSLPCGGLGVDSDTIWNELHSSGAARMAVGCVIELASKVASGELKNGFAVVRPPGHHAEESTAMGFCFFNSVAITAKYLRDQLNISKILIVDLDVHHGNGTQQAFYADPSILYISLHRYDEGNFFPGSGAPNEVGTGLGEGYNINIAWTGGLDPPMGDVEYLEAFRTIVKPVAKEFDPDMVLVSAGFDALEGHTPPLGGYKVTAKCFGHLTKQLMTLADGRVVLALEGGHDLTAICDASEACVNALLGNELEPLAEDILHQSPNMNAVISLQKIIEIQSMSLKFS
measurementNotes: HDAC9 Enzyme Inhibitory Assay (HDAC-Glo class IIa)
Assay type: biochemical
conditionDescription: 1 μM test compound; wells without enzyme = 100% inhibition; read-out: HDAC9 inhibitory rate (%) (1 μM)
Cut-off 60% on inhibition at 1 µM, inclusive. At or above means 1; below means 0.

# compound, labelClass
rows = [
    ("CC(C)(C)OC(=O)N1CC[C@H](N2Cc3cc(-c4noc(C(F)(F)F)n4)ccc3C2=O)[C@H](c2ccccc2)C1 (relative stereo) [Example 78]", 1),
    ("O=C1c2cc(-c3noc(C(F)(F)F)n3)ccc2CN1C1CCNC[C@@H]1c1cc(Cl)cc(Cl)c1 (stereo in doubt) [Example 58]", 1),
    ("CCC1(C(=O)N[C@@H]2CCCC[C@H]2N2Cc3ccc(-c4noc(C(F)(F)F)n4)cc3C2=O)COC1 [Example 138]", 0),
    ("O=C(N[C@@H]1CCOC[C@H]1N1Cc2ccc(-c3noc(C(F)(F)F)n3)cc2C1=O)C1CCOC1 (some centres unmarked) [Example 205]", 0),
    ("O=C1c2cc(-c3noc(C(F)(F)F)n3)ccc2CN1[C@H]1CCNC[C@H]1c1ccccc1 [Example 16]", 1),
    ("O=C(N[C@@H]1COCC[C@H]1N1Cc2ccc(-c3noc(C(F)(F)F)n3)cc2C1=O)[C@H]1CC1(F)F [Example 150]", 1),
    ("O=C(Cc1cc(=O)[nH][nH]1)N[C@@H]1CCCC[C@H]1N1Cc2ccc(-c3noc(C(F)(F)F)n3)cc2C1=O [Example 117]", 0),
    ("O=C(N[C@@H]1CCCC[C@H]1N1Cc2ccc(-c3noc(C(F)(F)F)n3)cc2C1=O)C1CCCCCO1 (some centres unmarked) [Example 119]", 0),
    ("O=C1CCCN1[C@H]1COCC[C@@H]1N1Cc2ccc(-c3noc(C(F)(F)F)n3)cc2C1=O [Example 181]", 0),
    ("CN1CCCCC1C(=O)N[C@@H]1CCCC[C@H]1N1Cc2ccc(-c3noc(C(F)(F)F)n3)cc2C1=O (some centres unmarked) [Example 124]", 0),
    ("O=C1c2cc(-c3noc(C(F)(F)F)n3)ccc2CN1C1CCNC[C@@H]1c1ccc(Cl)cc1 (stereo in doubt) [Example 51]", 1),
    ("CC(C)(C)OC(=O)N[C@@H]1COCC[C@H]1N1Cc2ccc(-c3noc(C(F)(F)F)n3)cc2C1=O [Example 81]", 1),
    ("N#Cc1ccccc1C(=O)N[C@@H]1CCCC[C@H]1N1Cc2ccc(-c3noc(C(F)(F)F)n3)cc2C1=O [Example 106]", 1),
]

---

testTarget: HDAC6 enzyme (Homo sapiens)
Construct: transducing full length HDAC1 and HDAC6 genes into Sf-9 insect cells; GST; purchased SignalChem; host or cells: Sf-9 insect cells
measurementNotes: HDAC1/6 Enzyme Inhibitory Assay (HDAC-Glo I/II Assay kit), HDAC6
Format: biochemical
conditionDescription: 1 μM test compound; wells without enzyme = 100% inhibition; read-out: HDAC6 inhibitory rate (%) (1 μM)
endpointName: inhibition at 1 µM (%)

# compound, readingUnit, reported
data = [
    ("CC(=O)N1CC[C@@H](N2Cc3ccc(-c4noc(C(F)(F)F)n4)cc3C2=O)[C@@H](c2ccccc2)C1", "%", 98),
    ("CC(CO)(CCl)C(=O)N[C@@H]1CCCC[C@H]1N1Cc2ccc(-c3noc(C(F)(F)F)n3)cc2C1=O (relative stereo)", "%", 100),
    ("CC(C)(O)C(=O)N[C@H]1CCCC[C@@H]1N1Cc2ccc(-c3noc(C(F)(F)F)n3)cc2C1=O", "%", 40),
    ("O=C(Cn1c(=O)oc2ccccc21)N1CCC(N2Cc3ccc(-c4noc(C(F)(F)F)n4)cc3C2=O)CC1", "%", 89),
    ("O=C(N[C@@H]1CCOC[C@H]1N1Cc2ccc(-c3noc(C(F)(F)F)n3)cc2C1=O)[C@@H]1CC1(F)F", "%", 99),
    ("O=C(N[C@@H]1COCC[C@H]1N1Cc2ccc(-c3noc(C(F)(F)F)n3)cc2C1=O)[C@@H]1CC1(F)F", "%", 100),
    ("O=C1c2ccc(-c3noc(C(F)(F)F)n3)cc2CN1[C@@H]1CCNC[C@H]1c1ccccc1 (relative stereo)", "%", 94),
    ("CC(C)(C)OC(=O)N1CC[C@H](N2Cc3cc(-c4noc(C(F)(F)F)n4)ccc3C2=O)[C@H](c2ccccc2)C1 (relative stereo)", "%", 11),
    ("O=C(N[C@@H]1CCCC[C@H]1N1Cc2ccc(-c3noc(C(F)(F)F)n3)cc2C1=O)C1CC1F (some centres unmarked)", "%", 99),
    ("O=C1c2cc(-c3noc(C(F)(F)F)n3)ccc2CN1C1CCNC[C@@H]1c1cc(Cl)cc(Cl)c1 (stereo in doubt)", "%", 98),
    ("O=C1c2cc(-c3noc(C(F)(F)F)n3)ccc2CN1[C@H]1CCCC[C@@H]1N1CCOCC1 (relative stereo)", "%", 97),
    ("CC1(C(=O)N[C@@H]2CCCC[C@H]2N2Cc3ccc(-c4noc(C(F)(F)F)n4)cc3C2=O)COC1", "%", 100),
    ("CC(C)(C)OC(=O)N1CC[C@@H](N2Cc3ccc(-c4noc(C(F)(F)F)n4)cc3C2=O)[C@@H](c2ccccc2)C1", "%", 99),
    ("O=C1CCC(C(=O)N[C@@H]2CCCC[C@H]2N2Cc3ccc(-c4noc(C(F)(F)F)n4)cc3C2=O)=NN1", "%", 98),
]
